# credit: patent US8435978B2

Biological target: human B1R receptor (Homo sapiens, UniProt P46663)
Construct: host or cells: CHO K1 cells (Chinese hamster ovary), stably transfected
Sequence (P46663 1-353): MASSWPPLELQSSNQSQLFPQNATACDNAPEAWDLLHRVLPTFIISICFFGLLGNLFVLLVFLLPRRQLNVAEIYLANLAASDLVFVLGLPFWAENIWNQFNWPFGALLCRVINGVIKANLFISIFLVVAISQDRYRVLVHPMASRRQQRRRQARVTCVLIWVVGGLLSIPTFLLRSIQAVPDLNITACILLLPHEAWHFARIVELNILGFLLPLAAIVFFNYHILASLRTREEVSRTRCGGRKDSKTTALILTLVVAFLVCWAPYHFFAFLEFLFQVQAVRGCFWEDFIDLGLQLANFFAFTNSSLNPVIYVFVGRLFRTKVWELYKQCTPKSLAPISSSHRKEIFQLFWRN
Experiment: Functional study on the bradykinin receptor 1 (B1R), FLIPR Ca2+ assay, hB1R cells
Assay type: cell-based
Conditions: CHO-K1, test substance 10 μM, agonist Lys-Des-Arg9-bradykinin 0.5 nM, % inhibition compared with the maximum achievable inhibition, read-out: B1R Antagonism, human [10 μM] % Inhibition
Excerpt: The agonistic or antagonistic action of substances can be quantified on the bradykinin receptor 1 (B1R) of the species human and rat with ectopically expressing cell lines (CHO K1 cells) and with the aid of a Ca^2+-sensitive dye (Fluo-4) using a fluorescent imaging plate reader (FLIPR). […] The agonistic or antagonistic action of substances can be determined on the bradykinin receptor 1 (B1R) of the species human and rat using the following assay. […]
assay.readout: inhibition at 10 µM (%)
Report the figure in % without appending any unit label.

Task: Endpoint output: inhibition at 10 µM of COc1cc(C)c(S(=O)(=O)N2CCCCC2COCC(=O)N2CCN(c3ccc(C(F)(F)F)cn3)CC2)c(C)c1 (stereo not shown) [Example 514] . Value?
Output: 85.2

Task: Endpoint output: inhibition at 10 µM of O=C(COCC1CCCCN1S(=O)(=O)c1c(Cl)cccc1Cl)NCC1CCCN(Cc2ccccc2)C1 (stereo not shown) [Example 314] . Value?
Output: 105

Task: Endpoint output: inhibition at 10 µM of COc1cc(C)c(S(=O)(=O)N2CCCC2COCC(=O)NCc2ccc(CN3CCN(C)CC3)cc2)c(C)c1 (stereo not shown) [Example 40] . Value?
Output: 72.7

Task: Endpoint output: inhibition at 10 µM of COc1cc(C)c(S(=O)(=O)N2CCCCC2COCC(=O)N(C)C(CN2CCOCC2)c2ccccc2)c(C)c1 (stereo not shown) [Example 368] . Value?
Output: 62.1

----------
Target: B1R receptor of the rat (Rattus norvegicus)
Construct: host or cells: CHO K1 cells (Chinese hamster ovary), stably transfected
Sequence (P97583 1-337): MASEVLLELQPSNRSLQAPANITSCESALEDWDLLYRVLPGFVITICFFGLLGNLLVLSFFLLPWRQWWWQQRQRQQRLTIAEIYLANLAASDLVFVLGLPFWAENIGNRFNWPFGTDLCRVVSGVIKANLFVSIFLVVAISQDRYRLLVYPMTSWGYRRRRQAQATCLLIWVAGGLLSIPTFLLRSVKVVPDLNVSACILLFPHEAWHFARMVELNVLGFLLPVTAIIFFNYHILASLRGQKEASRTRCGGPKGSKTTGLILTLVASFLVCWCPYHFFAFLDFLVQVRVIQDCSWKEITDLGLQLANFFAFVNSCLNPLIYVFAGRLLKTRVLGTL
Experiment: Functional study on the bradykinin receptor 1 (B1R), FLIPR Ca2+ assay, rB1R cells
Assay type: cell-based
Settings: CHO-K1, test substance 10 μM, agonist Des-Arg9-bradykinin 100 nM, % inhibition compared with the maximum achievable inhibition, read-out: B1R Antagonism, rat [10 μM] % Inhibition
Where a name gives a salt, the structure may show the parent alone.
Record form. Attribute: inhibition at 10 µM. Fill in for each entry.
Report the figure in % without appending any unit label.

Task: Endpoint output: inhibition at 10 µM of COc1cc(C)c(S(=O)(=O)N2CCCCC2COCC(=O)NCc2ccc(N3CCCCC3)cc2)c(C)c1 (stereo not drawn) . Value?
Output: 104

Task: Endpoint output: inhibition at 10 µM of O=C(COCC1CCCCN1S(=O)(=O)c1c(Cl)cccc1Cl)N1CCN(CCc2ccccc2)CC1 (stereo not drawn) . Value?
Output: 102

Task: Endpoint output: inhibition at 10 µM of COc1cc(C)c(S(=O)(=O)N2CCCCC2COCC(=O)NCCN2CCN(C)CC2)c(C)c1 (stereo not drawn) . Value?
Output: 89.9

Task: Endpoint output: inhibition at 10 µM of O=C(COCC1CCCN1S(=O)(=O)c1ccc(Cl)c(Cl)c1)N1CCN(c2ccccc2)CC1 (stereo not drawn) . Value?
Output: 0

Task: Endpoint output: inhibition at 10 µM of COc1cc(C)c(S(=O)(=O)N2CCCCC2COCC(=O)NCc2ccc(CN(C)C)cc2)c(C)c1 (stereo not drawn) . Value?
Output: 106

Task: Endpoint output: inhibition at 10 µM of CCN1CCN(c2ccc(NC(=O)COCC3CCCCN3S(=O)(=O)c3ccc(OC)cc3)cc2)CC1 (stereo not drawn) . Value?
Output: 102

Task: Endpoint output: inhibition at 10 µM of CN1CCN(C(=O)COCC2CCCCN2S(=O)(=O)c2c(Cl)cccc2Cl)C(c2ccccc2)C1 (stereo not drawn) . Value?
Output: 99.3

Task: Endpoint output: inhibition at 10 µM of CN(CCC1CCC(N2CCCC2)CC1)C(=O)COCC1CCc2ccccc2N1S(=O)(=O)c1ccc(Cl)c(Cl)c1 (stereo not drawn) . Value?
Output: 4.48

Task: Endpoint output: inhibition at 10 µM of Cc1ccc(C)n1CCN1CCN(C(=O)COCC2CCCN2S(=O)(=O)c2c(Cl)cc(Cl)cc2Cl)CC1 (stereo not drawn) . Value?
Output: 101

Task: Endpoint output: inhibition at 10 µM of COc1cc(C)c(S(=O)(=O)N2CCCC2COCC(=O)NCc2ccc(N3CCCCC3)cc2)c(C)c1 (stereo not drawn) . Value?
Output: 109

Task: Endpoint output: inhibition at 10 µM of COc1cc(C)c(S(=O)(=O)N2CCCCC2CCOCC(=O)N2CCN(C3CCN(C)CC3)CC2)c(C)c1 (stereo not drawn) . Value?
Output: 101

Task: Endpoint output: inhibition at 10 µM of COc1cc(C)c(S(=O)(=O)N2CCCCC2COCC(=O)Nc2cc(-c3ccc(Cl)cc3)n[nH]2)c(C)c1 (stereo not drawn) . Value?
Output: 98.7

Task: Endpoint output: inhibition at 10 µM of COc1cc(C)c(S(=O)(=O)N2CCCCC2COCC(=O)NCC2CCN(Cc3ccccc3)C2)c(C)c1 (stereo not drawn) . Value?
Output: 100

Task: Endpoint output: inhibition at 10 µM of COc1cc(C)c(S(=O)(=O)N2CCCCC2COCC(=O)Nc2[nH]ncc2-c2ccc(OC)c(OC)c2)c(C)c1 (stereo not drawn) . Value?
Output: 106

Task: Endpoint output: inhibition at 10 µM of CN(C)Cc1ccc(CNC(=O)COCC2CCCCN2S(=O)(=O)c2c(Cl)cc(Cl)cc2Cl)cc1 (stereo not drawn) . Value?
Output: 103

Task: Endpoint output: inhibition at 10 µM of Cc1cc(C)nc(CC2CCCCN2C(=O)COCC2Cc3ccccc3CN2S(=O)(=O)c2c(C)cc(C)cc2C)c1 (stereo not drawn) . Value?
Output: 86.4

Task: Endpoint output: inhibition at 10 µM of O=C(COCC1Cc2ccccc2CN1S(=O)(=O)c1ccc(Cl)cc1Cl)N1CCCC1CN1CCCCC1 (stereo not drawn) . Value?
Output: 87.9

Task: Endpoint output: inhibition at 10 µM of Cc1cc(C)c(S(=O)(=O)N2Cc3ccccc3CC2COCC(=O)NCc2cccc(N3CCOCC3)c2)c(C)c1 (stereo not drawn) . Value?
Output: 50.3

Task: Endpoint output: inhibition at 10 µM of COc1cc(C)c(S(=O)(=O)N2CCCCC2COCC(=O)N(C)CCc2ccncc2)c(C)c1 (stereo not drawn) . Value?
Output: 99.7

Task: Endpoint output: inhibition at 10 µM of COc1ccc(S(=O)(=O)N2CCCCC2COCC(=O)N2CCN(Cc3cccc(C)c3)CC2)cc1 (stereo not drawn) . Value?
Output: 96.2

Task: Endpoint output: inhibition at 10 µM of COc1cc(C)c(S(=O)(=O)N2CCCCC2COCC(=O)NCc2ccccc2N2CCN(C)CC2)c(C)c1 (stereo not drawn) . Value?
Output: 100

Task: Endpoint output: inhibition at 10 µM of COc1cc(C)c(S(=O)(=O)N2CCCC2COCC(=O)N2CCN(C)CC2c2ccccc2)c(C)c1 (stereo not drawn) . Value?
Output: 98.6

Task: Endpoint output: inhibition at 10 µM of COc1cc(C)c(S(=O)(=O)N2CCCCC2COCC(=O)NCc2cccc(N3CCN(C)CC3)c2)c(C)c1 (stereo not drawn) . Value?
Output: 100

Task: Endpoint output: inhibition at 10 µM of Cc1cccc(Cl)c1S(=O)(=O)N1CCC[C@H]1COCC(=O)N1CCN(C2CCN(C)CC2)CC1 [Example 162, dihydrochloride] . Value?
Output: 99.5

Task: Endpoint output: inhibition at 10 µM of CN1CCC(CN2CCN(C(=O)COCC3CCCCN3S(=O)(=O)c3csc4ccccc34)CC2)CC1 (stereo not drawn) . Value?
Output: 101

Task: Endpoint output: inhibition at 10 µM of COc1cc(C)c(S(=O)(=O)N2CCCC2COCC(=O)NCc2ccc(CN3CCCC3)cc2)c(C)c1 (stereo not drawn) . Value?
Output: 103

Task: Endpoint output: inhibition at 10 µM of CN1CCC(N2CCN(C(=O)COCC3CCCCN3S(=O)(=O)c3cc(Cl)c(Cl)cc3Cl)CC2)CC1 (stereo not drawn) [Example 156, dihydrochloride] . Value?
Output: 103

Task: Endpoint output: inhibition at 10 µM of COc1cc(C)c(S(=O)(=O)N2CCCCC2COCC(=O)N2CCN(Cc3cnn(C)c3C)CC2)c(C)c1 (stereo not drawn) . Value?
Output: 99.8

Task: Endpoint output: inhibition at 10 µM of O=C(COCC1CCCCN1S(=O)(=O)c1c(Cl)cccc1Cl)N1CCCC1c1cccnc1 (stereo not drawn) . Value?
Output: 101

Task: Endpoint output: inhibition at 10 µM of COc1cc(C)c(S(=O)(=O)N2CCCCC2COCC(=O)N(C)CCC2CCC(N(C)C)CC2)c(C)c1 (stereo not drawn) . Value?
Output: 99.9
